Test system: HOP-62 NSCLC
Assay: NCI-60 one-dose screen, 48 h
Conditions: 10 µM unless noted
About 83,000 compounds went through this panel and 20% of them were active in at least one assay; those are over-represented in the sample as a whole. Activity calls are given as the source filed them. How the source made its calls: active means growth percent below 10; inactive means the rest.
Classes used: active, inactive

Molecule	Assigned label
OB(O)c1ccsc1-c1nc2ccc3[nH]ncc3c2c2c1CCCC2	inactive
Cc1ccc(Cc2cnc(NC(=O)c3cc(C)oc3C)s2)cc1	inactive
CONC1=Nc2cc(NC(N)=NCc3ccccc3)c(N(C)C3CCCCC3)cc2OC1	inactive
COc1ccc(CN2CCc3c(Cl)nc(N)nc3C2=O)c(OC)c1	inactive
Cn1ccnc1CN1CCSC(C(=O)Nc2ccccc2)C1 (stereo unspecified)	inactive
Nc1nc(Nc2ccc(F)cc2)nn1C(=O)c1cc(Cl)ccc1Cl	inactive
O=C(/C=C/c1ccc(F)cc1)Nc1ncc(Cc2ccc(F)cc2)s1	inactive
COc1ccc(Nc2ncnc3ccc(-c4cncc(NS(C)(=O)=O)c4)cc23)cc1Cl	inactive
Cc1c(CC(=O)OCCO)cc(-c2ccc(Cl)cc2)n1-c1ccccc1	inactive
O=C(NCc1cccnc1)/C(=C\c1ccc(Br)cc1)S(=O)(=O)c1ccccc1	active
O=C(Nc1ccccc1C(=O)N/N=C(\c1ccccc1)c1ccccn1)c1ccccc1	active

* * *

Test system: COLO 205 colon
Assay: NCI-60 one-dose screen, 48 h
Settings: 10 µM unless noted
Compounds without any hit were thinned out: in the full panel of roughly 83,000, 20% have a hit. Active and inactive are the calls of the source. Rule for the calls: active = growth percent below 10; inactive = the rest.
Possible outcomes: label 1 (active), label 0 (inactive)

Compound	Assigned label
O=C(CCl)n1nnnc1Cc1ccccc1	label 0
COc1cc2c(cc1OCCCOC1=C=C=C(c3ccc4c(c3)c3cc(-c5ccc(OCCCOc6cc7c(cc6OC)C(=O)N6CCC[C@H]6C=N7)cc5)ccc3n4S(=O)(=O)c3ccc(C)cc3)C=C1)N=C[C@@H]1CCCN1C2=O	label 0
COc1nc(=O)n(C2C=CC(=O)O2)cc1F (centres undefined)	label 0
Cc1nc(-n2[nH]c(=O)ccc2=O)sc1N=Nc1ccccc1	label 0
Cc1ccc(Cc2cnc(NC(=O)c3cc(C)oc3C)s2)cc1	label 0
CCCCC#Cc1c(/C=C(\CCCC)SCC)n(C)c(=O)[nH]c1=O	label 0
CCCCCCCCN(CCCCCCCC)CC(O)c1cc(Cl)ccc1OC (centres undefined)	label 0
S=c1nc(CS)[nH]c2ccccc12	label 0
COc1cc(/C=C2\C(=O)N(CCCCn3c4ccccc4c(=O)c4ccccc43)c3ccccc32)cc(OC)c1O	label 0
C/C=C(/C)C(=O)O[C@@H]1CC(C)(C)CC2C34OC(=O)[C@@]21CC[C@@]3(C)[C@]1(C)CCC2C(C)(C)C(=O)CC[C@]2(C)C1C[C@@H]4Cl (some centres undefined)	label 0
Cc1ccc(NC(=O)c2sc3nc(C)c(C(=O)c4ccccc4)cc3c2N)cc1	label 0
CCCCC1=C(Br)C(=O)c2nc(C)ccc2C1=O	label 0
COc1cc2cc(NCc3ccncc3)nc(C)c2cc1OC	label 0
CN(C)CCNc1ncc(F)c(-c2cnc3cc(-c4cnn(C)c4)ccn23)n1	label 0
Cc1n(Cc2ccc3ccccc3c2)c(Cl)c(Cl)[n+]1Cc1ccc2ccccc2c1	label 1
Cc1ccc(-c2nc3nc(-c4ccccc4)nc(N4CCN(S(=O)(=O)c5ccccc5)CC4)c3o2)cc1	label 0
O=[N+]([O-])c1ccc2[nH]c3nccc(NCc4cccc(Cl)c4)c3c2c1	label 0
CS(=O)(=O)Nc1cc(-c2ccc3ncnc(Nc4ccc(F)c(Cl)c4)c3c2)cnc1Cl	label 1
COc1ccc2c(c1)c(-c1nc(-c3c[nH]c4c(Cl)nccc34)cs1)cn2C	label 0
Cc1ccc(C(=O)Nc2nc3c(s2)CN(Cc2ccccc2)CC3)cn1	label 0
Cc1ccc(NC(=O)N/C(N)=N/c2nc(=O)c3ccccc3s2)cc1	label 0
CN1CCN(CCNC(=O)c2cccc(CN3c4cccc5c4C(=Cc4cccnc43)N(C)C5=O)c2)CC1	label 0
Cc1nnc(NS(=O)(=O)c2ccc(N=Nc3ccc(N)nc3N)cc2)s1	label 0
COc1ccc(-c2[nH]c3ccccc3c2-c2ccc(OC)cc2)cc1	label 0
O=C(CCN1CCOCC1)Nc1cccc(-n2cc(-c3ccncc3)c(-c3ccc(Cl)c(O)c3)n2)c1	label 1
[2H]C([2H])([2H])Oc1cc(F)ccc1/C=C/C(=O)/C=C(/C=C/c1ccc(F)cc1OC([2H])([2H])[2H])OB(F)F	label 0
Cc1ccc(C(=O)c2ccc(CC(=O)N=Nc3c(O)[nH]c4ccc(OC(F)(F)F)cc34)n2C)cc1	label 0
O=C(/C=C/c1ccc(F)cc1)Nc1ncc(Cc2ccc(F)cc2)s1	label 0
COC(=O)N/N=C/c1c[n+]([O-])c2ccccc2[n+]1[O-]	label 1
N=C(N)c1ccc(-c2ccc(-c3ccc(Cl)c(Cl)c3)s2)cc1	label 1
O=C1/C(=C/c2cn(-c3ccccc3)nc2-c2ccccc2)SC(=S)N1c1ccccc1	label 0
CCCCCCCCn1ccc2cc(NC(=O)CN3CCN(c4nc(C)cc(N5CCCCC5)n4)CC3)ccc21	label 0
O=S(=O)(Nc1ccc(F)cc1)c1ccc(-c2cnc(C3CC3)o2)cc1	label 0
CON1CCC[C@]2(C)[C@H]3CC[C@@H]4[C@H]5[C@@H](O)C(C)(C)CC[C@]5(CO)CC[C@@]4(C)[C@]3(C)CC[C@H]2C1(C)C	label 0
COc1ccc(-c2cc3cnc4ccccc4c3oc2=O)cc1	label 0
Nc1c(C(=O)Nc2ccncc2)sc2nc3c(cc12)CCCCCCCC3	label 1
Cn1cc(-c2nc3c(F)cc4[nH]ncc4c3c3c2CCCC3)c(C(F)F)n1	label 0
Cc1cnc(C(=O)NNc2nc3sc4c(c3c(=O)[nH]2)C(C)CCC4)cn1 (centres undefined)	label 0
COc1ccc(-c2c[nH]c(C(=O)O)c2-c2cc(OC)c(OC)c(OC)c2)cc1	label 0
